Ref: the Human Domainome abundance scans (Beltran et al. 2025)

B1: RNA-binding E3 ubiquitin-protein ligase MEX3C, residues 325 to 391; numbered along this chain, Q5U5Q3 (parent)
chain: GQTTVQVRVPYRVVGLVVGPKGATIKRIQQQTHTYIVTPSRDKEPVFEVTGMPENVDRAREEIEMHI

variants of: B1; test: abundance fitness (aPCA) (normalised: wild type 0, dead -1); higher = more abundant; growth selection in yeast, the domain comes from the species named; settings: Homo sapiens
// label = yes if abundance fitness is not less than -0.6, otherwise no

- Q29R: yes
- S40Y: yes
- S40L: yes
- E44G: yes
- E48S: yes
- G51R: no
- H33E: yes
- G22E: yes
- K43Y: yes
- Q29M: yes
- K21S: yes
- E44W: no
- Y35M: yes
- T50I: yes
- I36P: no
- K21G: yes
- G19W: no
- K43P: yes
- V49W: no
- R41Y: yes
- E44M: no
- Q30S: yes
- P39N: yes
- R27T: yes
- H33G: yes
- F47Q: no
- P20C: yes
- Y35K: yes
- Y35H: yes
- Q30A: yes
- I36K: no
- I36Q: no
- G22W: no
- K43V: yes
- Q29F: no
- K26D: yes
- P53T: yes
- P45L: yes
- P39M: yes
- R41L: yes
- K26C: no
- T32W: no
- G51D: no
- T50N: no
- V49Q: no
- S40G: yes
